# Tested on: SK-OV-3 ovarian
# experiment: NCI tumour cell line growth inhibition, 48 h
The following molecules are shown together with reported TGI values.
measured.quantity: TGI

* COC1/C=C\C=C(/C)C(=O)NC2=CC(=O)C(NCCCl)=C(CC(C)CC(OC)C(O)C(C)/C=C(/C)C1OC(N)=O)C2=O (stereo unspecified) | 2.11 µM
* CCC1(O)C=CC(=O)C=C1 | > 100 µM
* CCCOC(=O)N[C@H]1CCc2c(Br)c(OC)c(OC)c(OC)c2-c2ccc(SC)c(=O)cc21 | 59.5 µM
* COc1ccc(-n2sc3ncc(-c4ccccc4)cc3c2=O)cc1 | > 100 µM
* O=CC1=CCCC2(C1)OCCO2 | > 100 µM
* CCCC[C@@H]1NC(=O)[C@H](CCCCN)NC(=O)[C@H](CCCNC(=N)N)NC(=O)[C@H](CC(C)C)NC(=O)[C@@H](NC(=O)[C@H](Cc2cccc(Cl)c2)NC(=O)[C@@H]2CCCN2C(=O)[C@@H](NC(C)=O)C(C)C)CCSSC[C@@H](C(=O)N[C@@H](CCCCN)C(=O)N2CCC[C@H]2C(=O)N2CCC[C@H]2C(=O)N[C@@H](CCC(=O)O)C(N)=O)NC(=O)[C@H](Cc2ccccc2)NC(=O)[C@H](CO)NC(=O)[C@H](C)NC(=O)[C@@H]2CCCN2C1=O | > 50 µM
* COC1=CC(c2ccc[nH]2)=N/C1=C\c1[nH]c(C)c(C(=O)CCC(=O)Oc2ccc3c(c2)CCC2C3CC[C@]3(C)C(=O)CC[C@@H]23)c1C (stereo partly specified) | > 100 µM
* CC1=C/C(=C(\c2ccc(N(C)C)cc2)c2ccc([N+](C)(C)C)cc2)C=CC1=[N+](C)C | 31.6 µM
* COC(=O)c1ccc(CN2CCc3c([nH]c4ccccc34)C2CO)o1 (stereo unspecified) | > 10 µM
* COC(=O)/C(=C/c1ccc(OC)cc1)C(C(=O)O)=C(C)C | > 100 µM
* CS(=O)(=O)NNS(=O)(=O)c1ccc(Br)cc1 | > 100 µM
* O=C1C=C(SCCO)C(=O)c2ccccc21 | 16.3 µM
* Cc1cc(N(CCCl)CCCl)ccc1C=Nc1cccnc1 | > 59.3 µM
* C[N+]1(C)CC=C(N2CCOCC2)CC1 | > 10 µM
* COC(=O)OC[C@H]1O[C@@H](n2cc(C)c(=O)[nH]c2=O)CC1OC(=O)OC (stereo partly specified) | > 100 µM
* O=[N+]([O-])/C(C(Cl)=C(Cl)Cl)=C1\Nc2ccccc2O1 | > 100 µM
* COc1cc(-c2c3c(cn2S(=O)(=O)c2ccccc2)-c2nc(N)sc2CC3)cc(OC)c1OC | 9.77 µM
* O=c1cc2n(c(=O)[nH]1)C1OC(C(O)C1O)[C@@H]2CCO (stereo partly specified) | > 100 µM
* CCCCCCCCCCCCNC(=O)NCC(OCC)OCC | > 10 µM
* COc1ccc(NC(=S)NN=C(C)c2cccc(C(C)=NNC(=S)Nc3ccc(OC)cc3)n2)cc1 | > 100 µM
* CS(=O)(=O)C1S(=O)(=O)OCCOS1(=O)=O | > 100 µM
* CC1=CC[C@@H]2[C@@H](CC[C@@]2(C)O)C(C)(C)[C@H]1CC[C@@H]1[C@@]2(C)CCC(=O)C(C)(C)O[C@@H]2CC[C@]1(C)O | > 100 µM
* COc1ccc(-c2nc(-c3nc4ccc(F)cc4[nH]3)cc3c2[nH]c2ccccc23)cc1 | > 100 µM
* COCCNCC(O)Cn1c2ccc(Cl)cc2c2cc(Cl)ccc21 (stereo unspecified) | 5.93 µM
* CC(=O)O[C@]1(C(C)=O)CC[C@H]2[C@@H]3C[C@H](C)C4=CC(=O)C=C[C@]4(C)[C@@]3(F)[C@@H](O)C[C@@]21C | 51 µM
* COc1nc(OC)c2c(=O)oc(-c3ccccc3)cc2n1 | > 100 µM
* Nc1ccccc1C#C/C=C\C#Cc1ccc(F)cc1F | 66.7 µM
* COc1ccc2c(c1O)-c1c(OC)c(OC)cc3c1[C@H](C2)[N+](C)(C)CC3 | > 100 µM
* COc1ccc(C2C3=C(NC(=O)C2C#N)c2ccc4ccccc4c2OCC3)cc1 (stereo unspecified) | 47.1 µM
* COc1ccc(C(=O)C2CC3(CCC2(O)c2ccc(OC)cc2)CC(=O)Nc2ccccc2C3=O)cc1 (stereo unspecified) | > 100 µM
* ClCCN(CCCl)Cc1ccc(Nc2ccnc3cc(Cl)ccc23)cc1 | 4.52 µM

* * *

# Tested on: ACHN renal
# experiment: NCI tumour cell line growth inhibition, 48 h
Where a SMILES comes first, the peptide text is derived from it. [ ]: non-standard residue; d: D form. The star is where a group is joined. hSer = N[CH](CCO)C(=O)O; Boc = CC(C)(C)OC(=O)*
measured.quantity: TGI

- N#CI1OC(=O)c2ccccc21: > 100 µM
- OCC(O)COc1ccc(Br)cc1 (centres undefined): > 100 µM
- O=S(=O)(c1cccc(C(F)(F)F)c1)N1c2ccccc2-n2cccc2C1c1cccnc1 (centres undefined): > 74.1 µM
- Nc1nc2ncn(CCO)c2c(=O)[nH]1: > 100 µM
- CCOC(=O)C1(Cc2ccc(C)cc2)Cc2ccc(C)cc2C1=O (centres undefined): > 100 µM
- CCOC(C)OCC#CCCBr (centres undefined): > 100 µM
- c1ccc2c(c1)O[As](O[As]1Oc3ccccc3O1)O2: 21.4 µM
- O=c1/c(=C/c2cccc3ccccc23)sc2nc3ccccc3n12: > 100 µM
- COc1ccc(-c2cc(C(=O)Nc3cccc(C(F)(F)F)c3)[nH]c(=S)n2)cc1: > 100 µM
- Cc1cc(-c2ccc(C(=O)C(Cl)(Cl)Cl)[nH]2)on1: > 100 µM
- CCOC(=O)CC(C)C(C#N)(OP1(=O)OC(c2ccccc2)C(C)N1C)c1ccccc1 (centres undefined): > 100 µM
- C=C(NC(=O)C(=C)NC(=O)c1csc(C2=NC3c4csc(n4)C4NC(=O)c5csc(n5)C(C(C)(O)C(C)O)NC(=O)C5CSC(=N5)/C(=C/C)NC(=O)C(C(C)O)NC(=O)c5csc(n5)C3(CC2)NC(=O)C(C)NC(=O)C(=C)NC(=O)C(=C)NC(=O)C(C(C)C)NC2C=Cc3c(C(C)O)cc(nc3C2O)C(=O)OC4C)n1)C(N)=O (centres undefined): > 61.2 µM
- CCOC(=O)c1nc2c3c(ncn2n1)Oc1c(c(-c2ccccc2)nn1-c1ccccc1)C3c1ccc(OC)c(OC)c1 (centres undefined): > 100 µM
- COc1ccc(C[C@@H]2CN(C(=O)c3ccccc3)[C@H](Cc3ccc(O)cc3)CN2C(=O)c2ccccc2)cc1Br: > 100 µM
- COc1ccc(CN2C(=O)CCC/C=C\[C@H]2CI)cc1: 27.3 µM
- COC(=O)C(=O)C(C(=O)C(=O)Nc1ccccc1C(=O)OC)c1nc2ccc(C(=O)c3ccccc3)cc2[nH]c1=O (centres undefined): > 100 µM
- Cc1ccc(S(=O)(=O)N(C)C)cc1[N+](=O)[O-]: > 100 µM
- O=C1Nc2ccc(F)c3c(OCCO)cc(-c4ccc[nH]4)c1c23: 7.2 µM
- CSc1nc2c(c(N(C)C)n1)C=Nn1c(nc3ccccc31)S2: > 100 µM
- CCC1(O)C=CC(=O)C=C1: 49 µM
- CCOC(=O)c1ccc(NC2Oc3cc4c(cc3C(c3cc(OC)c(OC)c(OC)c3)C2C)OCO4)cc1 (centres undefined): > 63.4 µM
- O=C1N[C@H]2c3c(Cl)sc(Cl)c3C(=O)[C@H]2O1: 35.6 µM
- Cc1c(Cl)ccc2c1NC(=O)C2(O)CC(=O)c1ccc(Cl)cc1Cl (centres undefined): > 50 µM
- NC1=CN(CCCO)C2=N/C(=C\c3ccco3)C(=O)N12: > 100 µM
- COc1ccc(-c2nc3ncccn3c2-c2ccc(S(C)=O)cc2)cc1 (centres undefined): > 100 µM
- CC(C)(C)C1CC[C@H]2c3c([nH]c4ccc(Br)cc34)[C@H]3C(=O)N(c4ccccc4)C(=O)[C@H]3[C@H]2C1 (some centres undefined): > 100 µM
- O=C1C=C(SCCO)C(=O)c2ccccc21: 2.87 µM
- COCCC(NC(=O)C(CC(C)C)NC(=O)OC(C)(C)C)C(N)=O (stereo not drawn) (Boc-Leu-[hSer](Me)-NH2; configuration not given here): > 100 µM
- COc1ccc(NC(=S)NN=C(C)c2cccc(C(C)=NNC(=S)Nc3ccc(OC)cc3)n2)cc1: > 100 µM
- C[N+]1(C)CC=C(N2CCOCC2)CC1: > 10 µM
- Cc1ccc(N=Nc2c(O)c3ccccc3[nH]c2=O)c(S(=O)(=O)N(C)C)c1: > 100 µM
- c1cnc2c(c1)-n1cccc1C1(CCOCC1)NN2: > 100 µM
- N#C/C(=C\c1ccc(CP(=O)(O)O)cc1)C(N)=O: > 100 µM
- COC[C@H]1C(=O)NCC(=O)N2NCCC[C@H]2C(=O)N(O)[C@H](C)C(=O)O[C@@H](C(C)C)[C@H](NC(=O)[C@](C)(O)[C@]2(O)CC[C@@H](CC(C)C)[C@H](C)O2)C(=O)N2NCCC[C@@H]2C(=O)N1O: 0.0307 µM
